B1: TPD52L1 (parent)
chain: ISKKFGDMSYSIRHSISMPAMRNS

# Variants of: B1
# test description: protein stability index of a GFP-peptide fusion (GPS, HEK-293T) (PSI 1-6); higher = more stable;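 note: lentivirally expressed fusions sorted by FACS into six bins by GFP to DsRed ratio, PSI derived from sequencing read proportions per bin multiplied by bin number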
# cond: c terminus: a fixed tail appended
Class t: protein stability index at least 2. Class f: protein stability index below 2.

The following variants have reported results that may help.
Quick check: does S9G have protein stability index greater than or equal to 2?
t

Is the recorded value of protein stability index equal to or greater than 2 for this variant? K4C
t

Is reported protein stability index greater than or equal to 2 here: I12Q
t

***
Quick check: does M18K have protein stability index greater than or equal to 2?
t

Confirm if protein stability index reported for the variant S11G is 2 or above.
t

The reported numbers originate from the supplement of paper PMC10567573.
